- protocol-text: Lipophilicity by RP-HPLC (methanol/water, RP-18 column)
- Format: physicochemical
- setup-conditions: RP-HPLC, methanol/water, extrapolated to zero methanol concentration, 25 °C
Hi there, I'd appreciate the recorded log kw for every entry that follows.
One number for each entry.

                                   compound  outcome_measure  observed_result
0  CC(C)(C)NC1=NC(=O)C(c2ccc(Br)cc2)S1 (stereo not drawn) [Compound 16]           log kw             3.38

List the reported log kw of each compound below.
1. CC(C)(C)NC1=NC(=O)C(c2ccccc2)S1 (stereo not drawn) [Compound 15]
2. CCCC1SC(NC(C)C)=NC1=O (stereo not drawn) [Compound 3]

1: 3.25; 2: 2.28

List the reported log kw of each compound below.
1. CC(C)(C)NC1=NC(=O)C2(CCCCC2)S1 [Compound 17]
2. O=C1N=C(NC23CC4CC(CC(C4)C2)C3)SC1c1ccccc1 (stereo not drawn) [Compound 24]
3. CC(C)NC1=NC(=O)C2(CCCCC2)S1 [Compound 8]
4. CC1(C)SC(NC23CC4CC(CC(C4)C2)C3)=NC1=O [Compound 23]
5. CC1SC(NC(C)(C)C)=NC1=O (stereo not drawn) [Compound 10]

[2.86, 4.13, 2.97, 3.54, 1.74]

###

- protocol-text: Lipophilicity by RP-TLC (methanol/water, HPTLC 60RP-18 plates)
- Format: physicochemical
- setup-conditions: RP-TLC, methanol/water, extrapolated to zero methanol concentration, 22 °C
outcome-measure: RM0
Answers are plain numbers.

In [3]: df
Out[3]:
                                   compound  outcome_measure  observed_result
0  O=C1N=C(NC23CC4CC(CC(C4)C2)C3)SC1c1ccc(Br)cc1 (stereo not shown)              RM0             3.56

List the reported RM0 of each compound below.
1. CCC1SC(NC(C)(C)C)=NC1=O (stereo not shown)
2. CC(C)NC1=NC(=O)C2(CCC2)S1
3. CCC1SC(NC23CC4CC(CC(C4)C2)C3)=NC1=O (stereo not shown)
4. CCC1SC(NC(C)C)=NC1=O (stereo not shown)

[1.59, 1.37, 2.30, 1.39]

List the reported RM0 of each compound below.
1. CC(C)(C)NC1=NC(=O)C(c2ccc(Br)cc2)S1 (stereo not shown)
2. CC(C)(C)NC1=NC(=O)C2(CCC2)S1
3. O=C1N=C(NC23CC4CC(CC(C4)C2)C3)SC1c1ccccc1 (stereo not shown)
4. CC1(C)SC(NC23CC4CC(CC(C4)C2)C3)=NC1=O
5. CC(C)C1SC(NC23CC4CC(CC(C4)C2)C3)=NC1=O (stereo not shown)

3.20
1.69
3.31
2.11
2.67

###

Hi there, I'd appreciate the recorded log kw for every entry that follows.
- protocol-text: Lipophilicity by RP-HPLC (methanol/water, RP-18 column)
- Format: physicochemical
- setup-conditions: RP-HPLC, methanol/water, extrapolated to zero methanol concentration, 25 °C

Take a look at these entries with their results.
>>> df
                                   compound  observed_result
0  CC(C)NC1=NC(=O)C(C)S1 (stereo not shown)             1.35
1  CC(C)C1SC(NC(C)(C)C)=NC1=O (stereo not shown)             2.39

List the reported log kw of each compound below.
1. CCCC1SC(NC(C)(C)C)=NC1=O (stereo not shown)
2. CC(C)NC1=NC(=O)C(c2ccccc2)S1 (stereo not shown)

1: 2.46; 2: 2.84
